- System: UACC-257 melanoma
- MEASUREMENT_PROTOCOL: NCI tumour cell line growth inhibition, 48 h
# TGI listing for each entry below
Enter your answer as a number in µM; do not include the unit.

Previously resolved entries follow.
CCc1c(C)[nH]c2c1/C(=N/N=C1\CCCc3[nH]c(C)c(CC)c31)CCC2 ... 31.9
COc1ccccc1-c1cc(=O)c2ccccc2n1C1CC1 ... 26.6

Look up TGI: C=C(C)C(CC=C(C)C)Cc1c(O)cc(OC)c2c1OC(c1ccc(O)cc1O)C(O)C2=O (stereo unspecified)
32.1

Look up TGI: Clc1ccc(CSC2=NCCN2)cc1Cl
24.1

Look up TGI: CC(=O)NC1=C(C)C(=O)c2c(nc3n2CCC3OC(=O)CCl)C1=O (stereo unspecified)
25.5

Look up TGI: CN1CCN(CCCCN2c3ccccc3Sc3ccc(C(=O)c4ccccc4)cc32)CC1
3.36

* * *

- Tested on: A549 NSCLC
- MEASUREMENT_PROTOCOL: NCI tumour cell line growth inhibition, 48 h
# GI50 listing for each entry below

FC(F)(F)CNc1nccc(-c2cnn3ncccc23)n1 ... 10.3 µM
Oc1ccc(CCl)c2cccnc12 ... 14.3 µM
CC/C=C\C/C=C\C[C@H]1C/C=C2/C(=O)C=C[C@@H]2C/C=C\CCC(=O)O1 ... 1.22 µM
COc1cc2c(cc1OC)[Se]c1cc(OC)c(OC)cc1[Se]2 ... > 100 µM
CCC(=C/[C@H](C)C/C=C/C(C)=C/[C@@H](C)C(=O)[C@@H](C)[C@H](O)[C@@H](C)CC)/C=C/[C@@H]1OC(=O)C=C[C@@H]1C ... < 0.005 µM

Now turn to the next molecule.
Look up GI50: Fc1ccc(-c2nnc3sc(-c4cc(Cl)cc(Cl)c4)nn23)cc1Cl
24.4 µM

* * *

- Tested on: MDA-MB-435
Result category, one only: active, inactive

Example entries and their recorded answers appear below.
Oc1ccc(CCl)c2cccnc12 ... inactive
O=C(O)c1sccc1O ... inactive
COc1cc(NC(=O)c2ccc(C(F)(F)F)nc2Nc2ccc(Cl)cc2C)cc(OC)c1OC ... inactive

Shifting focus to the compound that follows.
Short answer needed: outcome of this test for c1ccc(CSc2nnc3c4c5c(sc4nc(-c4cccnc4)n23)CCCCCC5)cc1 ?
inactive

* * *

- System: RXF 393 renal
- MEASUREMENT_PROTOCOL: NCI tumour cell line growth inhibition, 48 h
ENDPOINT_NAME: TGI (µM)
Enter your answer as a number in µM; do not include the unit.

Previously resolved entries follow.
Clc1ccc(CSC2=NCCN2)cc1Cl ... 28.4
CCOc1ccc2nc3cc(N=Nc4ccc(N)nc4N)ccc3c(N)c2c1 ... 10
O=c1c(C(=Nc2ccccc2)c2ccccc2)c[nH]n1-c1ccccc1 ... 72.8

Look up TGI: CC1SC(c2ccc(Cl)c(Cl)c2)N(NC(=O)C(O)c2ccccc2)C1=O (stereo unspecified)
83.2

Look up TGI: COc1ccc(NC(=S)N/N=C/c2c(C)n(C)n(-c3ccccc3)c2=O)cc1
56.6

Look up TGI: Cn1cc(C2=C(c3c4n(c5ccccc35)CCN(C(N)=S)C4)C(=O)NC2=O)c2ccccc21
10.6

Look up TGI: COc1cc(NC(=O)c2ccc(C(F)(F)F)nc2Nc2cc(Cl)ccc2C)cc(OC)c1OC
27.9

Look up TGI: COc1ccc(Cc2nc3cc([N+](=O)[O-])ccc3n2C[C@@H]2CCCN3CCCCC23)cc1 (stereo partly specified)
39.8

Look up TGI: Oc1c(Cl)cc(Cl)c2ccc(Cn3cc(-c4cc(F)cc(F)c4)nn3)nc12
2.99

Look up TGI: CCOC(=O)Cn1nc2ccc(Nc3c(C)[n+]([O-])c4cc(F)c(OCC)cc4[n+]3[O-])cc2n1
51.9

Look up TGI: O=C1Nc2ccccc2C1(c1c[nH]c2ccccc12)c1c[nH]c2ccccc12
3.76

Look up TGI: N#C/C(=C\c1c(Cl)cccc1Cl)c1ccccc1
25.7

Look up TGI: ClC1=C(Cl)C(Cl)=C(Cl)C1=Cc1ccccc1
2.23

* * *

- Test system: HT29 colon
- MEASUREMENT_PROTOCOL: NCI tumour cell line growth inhibition, 48 h
ENDPOINT_NAME: TGI

Field: TGI (HT29 colon). Entry: Fc1ccc(-c2nnc3sc(-c4cc(Cl)cc(Cl)c4)nn23)cc1Cl
83.3 µM

Field: TGI (HT29 colon). Entry: COc1ccc(C(O)c2cc3c(N)c(C(=O)Nc4cccc(OC)c4)sc3nc2C)cc1 (stereo not given)
3.7 µM

Field: TGI (HT29 colon). Entry: O=c1[nH]c2ccc(N=Cc3c(O)[nH]c4ccccc34)cc2[nH]1
> 25 µM

Field: TGI (HT29 colon). Entry: C=C1C/C(=C/C)C(=O)O[C@@H]2CCN3CC=C(COC(=O)[C@]1(C)O)[C@H]23
> 100 µM

Field: TGI (HT29 colon). Entry: O=C(CNc1c(Cl)cccc1Cl)Nc1ccc(-c2nc3ccccc3s2)cc1
4.76 µM

* * *

- Tested on: RXF 393 renal
- MEASUREMENT_PROTOCOL: NCI tumour cell line growth inhibition, 48 h
ENDPOINT_NAME: GI50

Fc1ccc(-c2nnc3sc(-c4cc(Cl)cc(Cl)c4)nn23)cc1Cl ... 1.51 µM
CC(=O)OC1Oc2ccc(C)cc2-c2oc(=O)c(-c3cc4ccccc4oc3=O)cc21 (stereo not drawn) ... 3.01 µM

Now turn to the next compound.
Field: GI50 (RXF 393 renal). Entry: N.N.NCCCCCCN.O=C([O-])CCl.O=C([O-])CCl.O=C([O-])CCl.O=C([O-])CCl.[Pt+4].[Pt+4]
13.1 µM

* * *

- System: U251 CNS
- MEASUREMENT_PROTOCOL: NCI tumour cell line growth inhibition, 48 h
ENDPOINT_NAME: TGI

Previously resolved entries follow.
O=C1CC2(CCC(O)(c3cccc4ccccc34)C(C(=O)c3cccc4ccccc34)C2)C(=O)c2ccccc2N1 (stereo unspecified) ... > 100 µM
Cc1oc2c(c1C)S(=O)(=O)C(C#N)=CN2 ... > 100 µM
CNC(=S)NC(=S)N(C)C ... > 100 µM
C=CCOC(C)n1c(C)c(Br)c(=O)[nH]c1=O (stereo unspecified) ... > 100 µM

Look up TGI: O=C1[C@H]2ON(c3ccccc3)C(c3ccc(Cl)cc3Cl)[C@H]2C(=O)N1c1ccc(Cc2ccc(N3C(=O)[C@@H]4ON(c5ccccc5)C(c5ccc(Cl)cc5Cl)[C@@H]4C3=O)cc2)cc1 (stereo partly specified)
> 100 µM

Look up TGI: COC(=O)C(C/C=C(\C)c1ccccc1)C(C)=O (stereo unspecified)
> 100 µM

Look up TGI: Oc1ccc(CCl)c2cccnc12
> 100 µM

* * *

- Test system: EKVX NSCLC
- MEASUREMENT_PROTOCOL: NCI tumour cell line growth inhibition, 48 h
ENDPOINT_NAME: TGI

COc1cc(C(C)c2ccc3c(ccn3C)c2)cc(OC)c1OC (stereo not given) ... > 100 µM
COc1ccc(CN2C(=O)C(Cl)=C(Nc3cccc(O)c3)C2=O)cc1 ... 56 µM
O=C1CCC(c2nc3cc(Cl)ccc3o2)C(=O)N1 (stereo not given) ... > 100 µM
CC(C)(C)OC(=O)NCC(c1c[nH]c2ccc(Br)cc12)c1c[nH]c2ccc(Br)cc12 ... 15.2 µM
N#Cc1ccc(Sc2ccccc2)cc1C#N ... > 100 µM

Look up TGI: Fc1ccc(-c2nnc3sc(-c4cc(Cl)cc(Cl)c4)nn23)cc1Cl
> 100 µM

Look up TGI: NC(Cc1c[nH]c2ccccc12)P(=O)(O)O (stereo not given)
> 100 µM

Look up TGI: CC1(C(=O)O)CCC(C(=O)O)C(C)(C)O1 (stereo not given)
> 100 µM

Look up TGI: Nc1ccn(C2OC(COP(=O)(O)OCC3OC(n4cc(F)c(=O)[nH]c4=O)CC3O)C(O)C2O)c(=O)n1 (stereo not given)
> 100 µM

Look up TGI: C=CCOC(C)n1c(C)c(Br)c(=O)[nH]c1=O (stereo not given)
> 100 µM

* * *

- Test system: LOX IMVI melanoma
- MEASUREMENT_PROTOCOL: NCI tumour cell line growth inhibition, 48 h
# TGI listing for each entry below

Previously resolved entries follow.
O=C1CCC(c2nc3cc(Cl)ccc3o2)C(=O)N1 (stereo not given) ... > 100 µM
O=C1C(c2ccccc2)=[N+]([O-])c2cc([N+](=O)[O-])c(/C(Cl)=C/c3ccccc3)cc21 ... 26.6 µM
Oc1ccc2c(c1)OCC1c3ccccc3OC21 (stereo not given) ... > 100 µM
CCCCCCCC/C=C\CCCCCCC/C=C1/C[C@](/C=C/C(=O)OC)(CO)OC1=O ... 12.8 µM

Now turn to the next compound.
Look up TGI: COC(=O)C(=O)C(C(=O)OC)C(=O)C(=O)Nc1ccccc1C(N)=O (stereo not given)
> 100 µM
